Molecular target: T1, cynoSIRPα (NP_001271679), Extracellular Domain + His-Tag (cynomolgus monkey)
T1 construct: also called CySIRPα NP_001271679; not shown: His-Tag
T1 chain: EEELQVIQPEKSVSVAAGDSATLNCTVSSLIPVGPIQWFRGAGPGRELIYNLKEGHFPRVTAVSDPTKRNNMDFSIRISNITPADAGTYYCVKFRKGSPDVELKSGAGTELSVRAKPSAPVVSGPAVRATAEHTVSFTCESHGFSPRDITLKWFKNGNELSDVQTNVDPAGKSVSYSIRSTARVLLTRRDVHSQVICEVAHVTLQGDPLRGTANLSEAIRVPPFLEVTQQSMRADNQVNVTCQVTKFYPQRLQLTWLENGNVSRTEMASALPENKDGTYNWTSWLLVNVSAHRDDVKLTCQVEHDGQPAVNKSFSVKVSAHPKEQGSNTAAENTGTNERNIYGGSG
Experiment: SPR, antibody captured on Protein A/G, ECD-His analyte, 1:1 fit
measured.property: kon (M⁻¹ s⁻¹)
Numeric answer only, unit M⁻¹ s⁻¹ assumed.

Below, each entry is followed by its recorded kon result.
{"columns": ["binder", "readout.unit", "reported"],
 "data": [
  ["Antibody E5 (antibody, human IgG1, kappa, L234A L235A, V domains shown) VH: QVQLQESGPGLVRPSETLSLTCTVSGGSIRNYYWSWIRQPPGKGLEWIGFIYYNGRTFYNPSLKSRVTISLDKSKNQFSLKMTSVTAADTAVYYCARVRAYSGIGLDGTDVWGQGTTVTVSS VL: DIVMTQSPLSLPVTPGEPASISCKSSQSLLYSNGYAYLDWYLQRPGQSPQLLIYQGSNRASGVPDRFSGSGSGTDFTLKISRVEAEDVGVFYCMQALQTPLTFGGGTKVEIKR", "M⁻¹ s⁻¹", 123000],
  ["Antibody E11 (antibody, human IgG1, kappa, L234A L235A, V domains shown) VH: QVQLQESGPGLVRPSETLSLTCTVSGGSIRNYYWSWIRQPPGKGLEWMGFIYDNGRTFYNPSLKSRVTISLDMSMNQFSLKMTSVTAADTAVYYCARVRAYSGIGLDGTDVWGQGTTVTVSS VL: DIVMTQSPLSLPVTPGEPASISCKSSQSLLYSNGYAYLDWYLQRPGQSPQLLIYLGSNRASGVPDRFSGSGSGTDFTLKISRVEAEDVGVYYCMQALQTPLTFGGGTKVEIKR", "M⁻¹ s⁻¹", 267000],
  ["Antibody E7 (antibody, human IgG1, kappa, L234A L235A, V domains shown) VH: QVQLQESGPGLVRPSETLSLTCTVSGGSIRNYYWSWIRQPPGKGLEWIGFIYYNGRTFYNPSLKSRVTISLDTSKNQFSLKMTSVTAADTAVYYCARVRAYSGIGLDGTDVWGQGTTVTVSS VL: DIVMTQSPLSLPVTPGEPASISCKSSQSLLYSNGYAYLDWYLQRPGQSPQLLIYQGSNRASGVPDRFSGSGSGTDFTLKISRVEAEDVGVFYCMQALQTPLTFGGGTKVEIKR", "M⁻¹ s⁻¹", 158000],
  ["Antibody E13 (antibody, human IgG1, kappa, L234A L235A, V domains shown) VH: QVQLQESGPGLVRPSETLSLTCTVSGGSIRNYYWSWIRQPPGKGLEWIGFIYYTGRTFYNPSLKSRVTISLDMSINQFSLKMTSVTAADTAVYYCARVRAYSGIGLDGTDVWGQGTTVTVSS VL: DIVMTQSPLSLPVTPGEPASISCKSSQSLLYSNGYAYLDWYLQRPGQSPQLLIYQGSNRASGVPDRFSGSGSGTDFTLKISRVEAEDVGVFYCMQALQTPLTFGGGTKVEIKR", "M⁻¹ s⁻¹", 197000],
  ["Antibody E8 (antibody, human IgG1, kappa, L234A L235A, V domains shown) VH: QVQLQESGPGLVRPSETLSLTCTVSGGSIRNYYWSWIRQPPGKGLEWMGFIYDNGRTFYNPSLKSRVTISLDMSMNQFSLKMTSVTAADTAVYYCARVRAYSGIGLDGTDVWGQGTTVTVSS VL: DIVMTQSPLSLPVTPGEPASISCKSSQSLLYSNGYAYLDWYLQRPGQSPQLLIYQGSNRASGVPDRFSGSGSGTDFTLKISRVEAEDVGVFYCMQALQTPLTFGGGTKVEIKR", "M⁻¹ s⁻¹", 204000]
]}

Any idea what its kon is? The binder is Antibody E19 (antibody, human IgG1, kappa, L234A L235A, V domains shown) VH: QVQLQESGPGLVRPSETLSLTCTVSGGSIRNYYWSWIRQPPGKGLEWIGFIYYTGRTFYNPSLKSRVTISLDMSKNQFSLKMTSVTAADTAVYYCARVRAYSGIGLDGTDVWGQGTTVTVSS VL: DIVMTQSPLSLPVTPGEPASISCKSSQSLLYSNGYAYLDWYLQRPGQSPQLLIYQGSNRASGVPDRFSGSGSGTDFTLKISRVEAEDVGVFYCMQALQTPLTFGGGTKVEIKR
156000

Also Antibody E18 (antibody, human IgG1, kappa, L234A L235A, V domains shown) VH: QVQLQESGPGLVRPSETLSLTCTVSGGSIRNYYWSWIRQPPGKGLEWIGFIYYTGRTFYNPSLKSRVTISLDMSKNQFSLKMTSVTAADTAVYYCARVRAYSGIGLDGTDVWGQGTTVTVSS VL: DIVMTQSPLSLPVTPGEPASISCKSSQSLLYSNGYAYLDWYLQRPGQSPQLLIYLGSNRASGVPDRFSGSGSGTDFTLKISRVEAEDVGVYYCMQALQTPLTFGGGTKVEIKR , if possible.
224000

Source: patent US20230012273A1
